// EC50 (read off the curve) lookup, one value per entry
- EXPERIMENTAL_TARGET: human NKG2A/CD94 on the cell surface (CHOk1-hNKG2A/CD94 stable cell line) (human) (UniProt P26715)
- EXPERIMENT_SUMMARY: FACS on CHOK1-hNKG2A/CD94 cells, Alexa 488 secondary antibody
Kindly answer with a numeric value in nM, unit omitted.

[
  {
    "BINDER": "Mab033 (antibody, V domains shown) VH: EVQLQQSVAEFVRPGASVRLSCTASGFNIENTYIHWLKQRPEQGLEWIGRIDPANGDTQYDPKFQGKATLTAATSSNTAYLQLSGLTSEDTAIYYCTRYGDYLFYYSLKYWGQGTSVTVSS VL: DIVMTQAAPSVSVTPGESVSISCRSSKSLLHSNGNTYLYWFLQRPGQSPQLLIYRMSNLASGVPDRFSGSGSGTAFTLRISRVEAEDVGVYYCMQHLESPYTFGGGTKLEIK",
    "EC50 (read off the curve) / nM": 0.8
  },
  {
    "BINDER": "Mpb416 (antibody, V domains shown) VH: QVQLQQSVAELVRPGASVKLSCTASGFNIQNTYIHWVKQRPEQGLEWIGKIDPANGDTKYAPTFQGKATITADTSSNTAYLQLSSLTPEDTAIYYCARYRDYLFYYALGYWGQGTSVTVSS VL: DIVMTQSAPSVPVTPGESVSISCRSSKSLLHSNGNTYLYWFLQRPGQSPQLLIYRMSNLASGVPDRFSGSGSGTAFTLRISRVEAEDVGVYYCMQHLEYPYTFGGGTKLEIK",
    "EC50 (read off the curve) / nM": 0.7
  },
  {
    "BINDER": "Mab032 (antibody, V domains shown) VH: EVQLQQSVAELVRPGASVRLSCTGSGFNIENTYMHWLKQRPEQGLEWIGRIDPADGDTQYAPKFQGKATITTDTSSNTAYLQLSSLTSEDTAIYYCARYGNYLFYYSMDYWGQGTSVTVSS VL: DIVMTQAAPSVPVTPGESVSISCRSSKSLLHSNGNTYLYWFLQRPGQSPQLLIYRMSNLASGVPDRFSGSGSATAFTLRISRVEAEDVGIYYCMQHLEYPYTFGGGTKLEIK",
    "EC50 (read off the curve) / nM": 0.8
  }
]

Field: next binder
Inquiry: Quick one: EC50 (read off the curve) of Mab031 (antibody, V domains shown) VH: EVQLQQSVAELVRPGASVRLSCTGSGFNIQNTYIHWVKQRPEQGLEWIGRIDPANGDTKYAPKFQGKATITADTSSNTAYLQLSSLTSEDTAIYYCTRYGNYLYYYSLDYWGQGTSVTVSS VL: DIVMTQAAPSVPVTPGESVSISCRSSKSLLHSNGNTYLYWFLQRPGQSPQLLIYRMSNLASGVPDRFSGSGSGTAFTLRISRVEAEDMGVYYCMQHLEYPYTFGGGTKLEIK ?
Reply text: 0.8

Data origin: patent US20220259306A1
